# key: entry, value: GI50
- Test system: M19-MEL
- experiment notes: NCI tumour cell line growth inhibition, 48 h
Activity calls are given as the source filed them. No stated cut-off is given here; in the data, active = GI50 up to about 1.1 µM and inactive = higher.

A selection of reference data follows.
* O=C1C2Cc3ccccc3CN2C(=O)N1CCN1CCOCC1 (centres undefined) | > 100 µM (inactive)
* COc1cc2c(c3c1c(=O)c1ccccc1n3C)C=CC(C)(C)O2 | 72.3 µM (inactive)
* CC1CC[P+](c2ccccc2)(c2ccccc2)c2c1ccc1ccccc21 (centres undefined) | 1.69 µM (inactive)
* Cc1ccc(S(=O)(=O)SC(C)(C)C)cc1 | 33.8 µM (inactive)
* N#C[C@H](OC1OC(COC2OC(CO)C(O)C(O)C2O)C(O)C(O)C1O)c1ccccc1 (some centres undefined) | > 250 µM (inactive)

From here, focus on the item given below.
**Q:** What GI50 value was documented for this compound, CC[S+](C)c1ccc(-c2c3nc(c(-c4ccc([S+](C)CC)cc4)c4ccc([nH]4)c(-c4ccc([S+](C)CC)cc4)c4nc(c(-c5ccc([S+](C)CC)cc5)c5ccc2[nH]5)C=C4)C=C3)cc1.[O-][Cl+3]([O-])([O-])[O-].[O-][Cl+3]([O-])([O-])[O-].[O-][Cl+3]([O-])([O-])[O-].[O-][Cl+3]([O-])([O-])[O-] (centres undefined) ?
**A:** 40.9 µM (inactive)

* * *

- Test system: 786-0
- experiment notes: NCI tumour cell line growth inhibition, 48 h
Active and inactive are the calls of the source. No stated cut-off is given here; in the data, active = GI50 up to about 1.1 µM and inactive = higher.
Give one outcome, nothing more. List: active, inactive

Recorded results for 2 compounds are shown here.
* CC1=C/C(=C(/c2ccc(O)c(C)c2)c2ccccc2C(=O)O)C=CC1=O | inactive
* COC1=CC(=O)c2c(cc3c(c2O)-c2c(OC)cc4cc5c(c(O)c4c2OC(=O)CC(C)(O)C3)C(=O)CC(C)(O)C5)C1=O (centres undefined) | inactive

**Q:** Record lookup: outcome of this test for CCOc1ccc2[nH]c3c(C)c4cc[n+](C)cc4c(C)c3c2c1 ?
**A:** active

**Q:** Try the compound O=C(O)C1CCN(Cc2oc(CO)cc(=O)c2O)C1 (centres undefined)
**A:** inactive

* * *

- Test system: NCI-H460
- experiment notes: NCI tumour cell line growth inhibition, 48 h
Calls of active or inactive are those of the source. Rule as the data show it: active = GI50 up to about 1.1 µM and inactive = higher.
Give one outcome, nothing more. List: yes (1) (active), no (0) (inactive)

- SC1=Nc2ccccc2-c2nc(-c3ccccc3)cc(-c3ccc(Br)cc3)c2C1: yes (1)
- N[C@@H]1CCN(c2c(F)cc3c(=O)c(C(=O)O)cn4c3c2Oc2cc3c(ccc5ccccc53)cc2-4)C1: yes (1)
- COc1cc(C2c3cc4c(cc3[C@@H](OCCN)[C@H]3COC(=O)C23)OCO4)cc(OC)c1O (some centres undefined): yes (1)
- Cn1c(CC(O)c2nc3ccccc3n2C)nc2ccccc21 (centres undefined): no (0)
- O=C1c2ccccc2-c2cccc3ccc(Cc4ccccc4)c1c23: no (0)

**Q:** Record lookup: outcome of this test for S=C(N/N=C(\c1ccccc1)c1ccccn1)NC1CCCCC1 ?
**A:** no (0)

**Q:** Try the compound N=C(N)NS(=O)(=O)c1ccc(Nc2c3ccccc3nc3c(C(=O)Nc4ccc(S(N)(=O)=O)cc4)cccc23)cc1
**A:** no (0)

**Q:** Try the compound COc1cc(=O)oc(/C=C/C=C/C=C/C(C)=C\C2(C)OC(C)C(C)(O)C2O)c1C (centres undefined)
**A:** no (0)

**Q:** Try the compound Cc1ccccc1NC(=O)c1cc2cc(/N=N/c3ccccc3C(=O)O)ccc2oc1=O
**A:** no (0)

* * *

- System: UO-31
- experiment notes: NCI tumour cell line growth inhibition, 48 h
Activity calls are given as the source filed them. Rule as the data show it: active = GI50 up to about 1.1 µM and inactive = higher.
Give one outcome, nothing more. List: active, inactive

• CC/C(=C\c1ccc(Cl)c(Cl)c1)[N+](=O)[O-] = inactive
• CCCCNC(=O)N/C=C1\C(=O)Oc2ccccc2C1=O = inactive
• COc1c(C)c(C/C=C(\C)CC/C=C(\C)CCC=C(C)C)c(OC)c(OC)c1OC = inactive
• CCCCN(CCCC)CC(=O)c1ccc2cc(Cl)c3ccccc3c2c1 = inactive
• O=C(NCCC1CN(S(=O)(=O)C(F)(F)F)c2ccccc21)OCc1ccccc1 (stereo not given) = inactive
• CC12CCC(C1)C(C)(C)C2OC(=O)c1ccccc1C(=O)O (stereo not given) = inactive
• COc1ccc(C2C3=C(COC3=O)OC(C)(C)Oc3cc4c(cc32)OCO4)cc1 (stereo not given) = inactive
• COc1cc(/C=C2\CC/C(=C\c3cc(OC)c(O)c(OC)c3)C2=O)cc(OC)c1O = inactive

**Q:** Record lookup: outcome of this test for COc1ccc2nc3ccccc3c(NCCCCCN(CCCl)CCCl)c2c1 ?
**A:** active

**Q:** Try the compound Oc1ccc(-c2c3ccccc3c(-c3ccc(OCCBr)cc3)c3ccccc23)cc1
**A:** inactive

* * *

- System: OVCAR-4
- experiment notes: NCI tumour cell line growth inhibition, 48 h
Active and inactive are the calls of the source. Cut-off read from the data, not from the text of the source: active = GI50 up to about 1.1 µM and inactive = higher.
Give one outcome, nothing more. List: 1 = active, 0 = inactive

• O=C1CCC23CC(C=CC=C12)n1c(=O)n(-c2ccccc2)c(=O)n13 (stereo unspecified) = 0
• CN(C)CC1=Nc2cccc3cccc(c23)N1 = 0
• COc1ccc(-c2c(C(C)=O)c(C)n(C3OC(COC(C)=O)C(OC(C)=O)C(OC(C)=O)C3OC(C)=O)c(=S)c2C#N)cc1 (stereo unspecified) = 0

**Q:** Record lookup: outcome of this test for COC(=O)NN=C(c1ccc(Cl)cc1)c1ccc(Cl)cc1 ?
**A:** 0

**Q:** Try the molecule CC1CSc2nc3nc(S)nc-3c(O)n2C1 (stereo unspecified)
**A:** 0

**Q:** Try the molecule CN(C)CCCNc1ccnc2c([N+](=O)[O-])cccc12
**A:** 0

**Q:** Try the molecule COC(=O)c1ccc(Nc2nc3[nH]cnc3c(=O)[nH]2)cc1
**A:** 0

**Q:** Try the molecule CCCCCCCCCCCCCCCCCCOc1ccc(/C=C/C2=[N+](CCCl)CCO2)cc1
**A:** 0

**Q:** Try the molecule C[C@@H](CO)C1=CC(C#C[Si](C)(C)C)N(C(=O)Oc2ccccc2)c2ccccc21 (stereo partly specified)
**A:** 0

* * *

- Test system: UO-31
- experiment notes: NCI tumour cell line growth inhibition, 48 h
Active and inactive are the calls of the source. Cut-off read from the data, not from the text of the source: active = GI50 up to about 1.1 µM and inactive = higher.
outcome measure: GI50

- CC1=CCC(=O)[C@]2(C)C(CC(=O)O)[C@]3(C)C4=C(C)C(c5ccoc5)C[C@@H]4O[C@@H]3[C@H](O)[C@@H]12 (stereo not given in full): > 100 µM (inactive)
- CC1=NN(c2ccc(C)cc2)C2(C1)SCC(=O)N2c1nc2ccccc2s1 (stereo not given): 22.9 µM (inactive)
- [O-][S+](CCc1ccccc1)Nc1ccccc1 (stereo not given): > 100 µM (inactive)

**Q:** What GI50 value was documented for this compound, O=c1cc(/N=N\c2ccc(Cl)cc2)[nH]c(=O)[nH]1 ?
**A:** 4.82 µM (inactive)

**Q:** Try the compound COC(=O)C(/C(=N/NC(=O)c1ccncc1)C(=O)Nc1ccccc1OC)c1nc2ccc(Cl)cc2nc1O (stereo not given)
**A:** 47 µM (inactive)

* * *

# key: entry, value: GI50
- System: RXF 393
- experiment notes: NCI tumour cell line growth inhibition, 48 h
Calls of active or inactive are those of the source. Rule as the data show it: active = GI50 up to about 1.1 µM and inactive = higher.

- CCCCCCCCCCCCCC(=O)OC(/C=C/C(C)C)C(O)C(O)C(OC)C(=O)NC1CCCCNC1=O (stereo not drawn): 0.789 µM (active)
- C/C=C(\CCOS(=O)(=O)c1ccc(C)cc1)[Si](C)(C)C: > 100 µM (inactive)
- COC(=O)Cc1ccc(Oc2nc3ccccc3nc2-c2cccs2)cc1: 19.1 µM (inactive)
- Brc1ccc(CCNCCN2CCCCC2)cc1: 33.6 µM (inactive)
- Cc1nc(-c2cc3c(ccc4ccccc43)oc2=O)cs1: 35.8 µM (inactive)

**Q:** What GI50 value was documented for this compound, CCCCCCCCCCCCCC(=O)OC1C(CO)OC(=O)C1O (stereo not drawn) ?
**A:** > 100 µM (inactive)

**Q:** Try the compound CCOC(=O)/C=C(/C(=O)OCC)n1ccc(=O)n(/C(=C/C(=O)OCC)C(=O)OCC)c1=O
**A:** 3.68 µM (inactive)

**Q:** Try the compound C/C(CC(=O)Nc1ccc(Cl)c(Cl)c1)=N/NC(=O)C[N+](C)(C)C
**A:** > 100 µM (inactive)

**Q:** Try the compound CC(C)C/C(CC(=O)CCC(=O)Nc1ccccc1[N+](=O)[O-])=N\NC(=O)c1cc2ccccc2cc1O
**A:** 9.79 µM (inactive)

**Q:** Try the compound COc1ccccc1C1(c2c(OC(C)C)c(=O)c2=O)SCCCS1
**A:** > 100 µM (inactive)

**Q:** Try the compound COc1ccc2cc1Oc1ccc(cc1)C[C@@H]1c3cc(c(OC)cc3CCN1C)Oc1c(OC)c(OC)cc3c1[C@@H](C2)N(C)CC3
**A:** 1.6 µM (inactive)
